- Measured on: Amine oxidase [flavin-containing] A (Homo sapiens, UniProt P21397)
- Sequence (P21397 whole entry): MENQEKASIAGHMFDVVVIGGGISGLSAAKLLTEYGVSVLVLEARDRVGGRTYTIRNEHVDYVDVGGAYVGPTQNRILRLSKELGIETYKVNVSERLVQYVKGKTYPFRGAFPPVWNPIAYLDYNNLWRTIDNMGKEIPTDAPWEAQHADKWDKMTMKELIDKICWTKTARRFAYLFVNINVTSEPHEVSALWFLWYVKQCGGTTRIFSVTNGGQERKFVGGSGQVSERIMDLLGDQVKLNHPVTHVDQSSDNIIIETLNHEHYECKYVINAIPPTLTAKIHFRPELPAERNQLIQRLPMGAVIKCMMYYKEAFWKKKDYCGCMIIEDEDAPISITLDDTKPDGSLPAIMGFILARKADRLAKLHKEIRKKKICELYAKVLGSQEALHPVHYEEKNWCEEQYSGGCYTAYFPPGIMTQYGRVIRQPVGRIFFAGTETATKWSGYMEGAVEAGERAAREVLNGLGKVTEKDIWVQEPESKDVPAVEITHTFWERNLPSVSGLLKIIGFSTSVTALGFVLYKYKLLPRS
- Protocol details: Inhibition of human recombinant MAO-A using tyramine as substrate by ELISA
- Assay type: toxicity
Endpoint label: pIC50
Remember, pIC50 is on a log scale: it is -log10 of the molar concentration.

-- ask Value lookup for pIC50; key = O=C1O[C@H](Cn2ccnn2)CN1c1ccc(N2CCOCC2)c(F)c1
-- reply 4.50

---

- Measured on: MAO-B (Homo sapiens, UniProt P27338)
- Sequence (P27338 whole entry): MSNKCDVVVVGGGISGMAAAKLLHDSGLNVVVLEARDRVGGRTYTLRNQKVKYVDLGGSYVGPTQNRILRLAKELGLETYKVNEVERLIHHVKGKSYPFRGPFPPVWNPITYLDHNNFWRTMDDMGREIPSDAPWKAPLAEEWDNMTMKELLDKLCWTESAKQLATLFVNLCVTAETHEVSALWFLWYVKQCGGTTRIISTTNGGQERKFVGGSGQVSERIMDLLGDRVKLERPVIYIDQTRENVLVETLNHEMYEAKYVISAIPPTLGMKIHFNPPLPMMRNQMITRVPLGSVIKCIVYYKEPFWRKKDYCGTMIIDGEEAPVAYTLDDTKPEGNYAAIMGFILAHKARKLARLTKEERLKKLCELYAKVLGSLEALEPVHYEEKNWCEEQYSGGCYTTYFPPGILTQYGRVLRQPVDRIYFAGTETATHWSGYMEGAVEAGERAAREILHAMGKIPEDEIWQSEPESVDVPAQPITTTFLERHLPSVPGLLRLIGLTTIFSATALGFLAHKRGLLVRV
- Protocol details: Potency index, ratio of test compound IC50 to linezolid IC50 for inhibition of human recombinant MAO-B using benzylamine as substrate
- Type: toxicity
- Conditions used: probe benzylamine, read-out: Ratio IC50
Endpoint label: selectivity ratio
Keep the answer to the number alone.

-- ask Value lookup for selectivity ratio; key = CCS(=O)(=O)NC[C@H]1CN(c2ccc(N3CCOCC3)c(F)c2)C(=O)O1
-- reply 64.6
